- System: 653999-131-R-J2-PDC complex spheroids, growth inhibition
- assay: Anticancer human tumor 653999-131-R-J2-PDC patient-derived lung adenocarcinoma cell line growth inhibition [RAS]
- condition parameters: second compound 0.00949 µM; first compound 0.3 µM; stronger effect = lower value
Task for the reader: assign each of the following compounds its reported viability, T/C.

Can you look up viability, T/C on 653999-131-R-J2-PDC complex spheroids, growth inhibition for CC1(C)CCC(Nc2ncc(C(F)(F)F)c(-c3c[nH]c4c(P(C)(C)=O)c(C#N)ccc34)n2)CN1 (centres undefined) + CCn1c(-c2cccnc2C(C)OC)c2c3cc(ccc31)N1CCOC(CC(NC(=O)C(C(C)C)N(C)C(=O)C3(F)CCN(C(=O)C#CC(C)(C)N(C)C)CC3)C(=O)N3CCCC(N3)C(=O)OCC(C)(C)C2)C1 ?
87.2%

Note, next up: CCc1c2c(nc3ccc(O)cc13)-c1cc3c(c(=O)n1C2)COC(=O)[C@]3(O)CC + CCn1c(-c2cccnc2C(C)OC)c2c3cc(ccc31)N1CCOC(CC(NC(=O)C(C(C)C)N(C)C(=O)C3(F)CCN(C(=O)C#CC(C)(C)N(C)C)CC3)C(=O)N3CCCC(N3)C(=O)OCC(C)(C)C2)C1
17.3%

Please do the same for CCc1c2c(nc3ccc(O)cc13)-c1cc3c(c(=O)n1C2)COC(=O)[C@]3(O)CC + CCn1c(-c2cc(N3CCN(C)CC3)cnc2C(C)OC)c2c3cc(ccc31)-c1csc(n1)CC(NC(=O)C1CC1C)C(=O)N1CCCC(N1)C(=O)OCC(C)(C)C2 as well.
6.56%

CC1(C)CCC(Nc2ncc(C(F)(F)F)c(-c3c[nH]c4c(P(C)(C)=O)c(C#N)ccc34)n2)CN1 (centres undefined) + CCn1c(-c2cc(N3CCN(C)CC3)cnc2C(C)OC)c2c3cc(ccc31)-c1csc(n1)CC(NC(=O)C1CC1C)C(=O)N1CCCC(N1)C(=O)OCC(C)(C)C2 , same question.
22.3%

----------
- Test system: 653999-131-R-J2-PDC complex spheroids, growth inhibition
- assay: Anticancer human tumor 653999-131-R-J2-PDC cell line growth inhibition [RAS];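 further: spheroids exposed to the agents for seven days before the readout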
- condition parameters: second compound 10 µM; first compound 3.16 µM; stronger effect = lower value
The label is class 1 for viability, T/C below 9% and class 0 for viability, T/C equal to or exceeding 9%.

Please check: viability, T/C for CC1(O)CCCC1n1c(=O)c(C(F)F)cc2cnc(NC3CCN(S(C)(=O)=O)CC3)nc21 (stereo not drawn) + C#Cc1c(F)ccc2cc(O)cc(-c3ncc4c(N5CC6CCC(C5)N6)nc(OCC56CCCN5CC(F)C6)nc4c3F)c12 , strictly under 9% or not?
class 0

And what about the compound CC(=O)OC12COC1CC(O)C1(C)C(=O)C(O)C3=C(C)C(OC(=O)C(O)C(NC(=O)OC(C)(C)C)c4ccccc4)CC(O)(C(OC(=O)c4ccccc4)C21)C3(C)C (stereo not drawn) + C#Cc1c(F)ccc2cc(O)cc(-c3ncc4c(N5CC6CCC(C5)N6)nc(OCC56CCCN5CC(F)C6)nc4c3F)c12 ?
class 0

How about this compound: CC(Nc1ccc2c(c1)OCCn1cc(N3C(=O)OCC3C(F)F)nc1-2)C(N)=O (stereo not drawn) + C#Cc1c(F)ccc2cc(O)cc(-c3ncc4c(N5CC6CCC(C5)N6)nc(OCC56CCCN5CC(F)C6)nc4c3F)c12
class 1

How about this compound: CC(C)NCC(C(=O)N1CCN(c2ncnc3c2C(C)CC3O)CC1)c1ccc(Cl)cc1 (stereo not drawn) + C#Cc1c(F)ccc2cc(O)cc(-c3ncc4c(N5CC6CCC(C5)N6)nc(OCC56CCCN5CC(F)C6)nc4c3F)c12
class 0

What do you have for CCC(CC)c1cc(NC2CCC(N)C2)n2nccc2n1 (stereo not drawn) + C#Cc1c(F)ccc2cc(O)cc(-c3ncc4c(N5CC6CCC(C5)N6)nc(OCC56CCCN5CC(F)C6)nc4c3F)c12 ?
class 0

Another compound to check: C[C@@H](NC(=O)c1ncnc(N)c1Cl)c1ncc(C(=O)Nc2cc(C(F)(F)F)c(Cl)cn2)s1 + C#Cc1c(F)ccc2cc(O)cc(-c3ncc4c(N5CC6CCC(C5)N6)nc(OCC56CCCN5CC(F)C6)nc4c3F)c12
class 0

Repeat with NC1c2ccccc2OC12CCN(c1cnc3c(N4CCCc5ncccc54)n[nH]c3n1)CC2 (stereo not drawn) + C#Cc1c(F)ccc2cc(O)cc(-c3ncc4c(N5CC6CCC(C5)N6)nc(OCC56CCCN5CC(F)C6)nc4c3F)c12
class 1

Next entry: Cc1nc(N2CCC3(CC2)COC(C)C3N)c(CO)nc1Sc1ccnc(N)c1Cl (stereo not drawn) + C#Cc1c(F)ccc2cc(O)cc(-c3ncc4c(N5CC6CCC(C5)N6)nc(OCC56CCCN5CC(F)C6)nc4c3F)c12
class 1

----------
- System: 653999-131-R-J2-PDC complex spheroids, growth inhibition
- assay: Anticancer human tumor 653999-131-R-J2-PDC cell line growth inhibition [RAS];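 further: spheroids exposed to the agents for seven days before the readout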
- condition parameters: second compound 0.000949 µM; first compound 0.000949 µM; stronger effect = lower value
Consider the following molecules; for each one, report its viability, T/C.
Numbers only; they are read as %.

Query: viability, T/C; subject: CC1(C)CCC(Nc2ncc(C(F)(F)F)c(-c3c[nH]c4c(P(C)(C)=O)c(C#N)ccc34)n2)CN1 (centres undefined) + CCn1c(-c2cc(N3CCN(C)CC3)cnc2C(C)OC)c2c3cc(ccc31)-c1csc(n1)CC(NC(=O)C1CC1C)C(=O)N1CCCC(N1)C(=O)OCC(C)(C)C2
60.9

And what about the molecule CCc1c2c(nc3ccc(O)cc13)-c1cc3c(c(=O)n1C2)COC(=O)[C@]3(O)CC + CCn1c(-c2cc(N3CCN(C)CC3)cnc2C(C)OC)c2c3cc(ccc31)-c1csc(n1)CC(NC(=O)C1CC1C)C(=O)N1CCCC(N1)C(=O)OCC(C)(C)C2 ?
70.2

And for CC1(C)CCC(Nc2ncc(C(F)(F)F)c(-c3c[nH]c4c(P(C)(C)=O)c(C#N)ccc34)n2)CN1 (centres undefined) + CCn1c(-c2cccnc2C(C)OC)c2c3cc(ccc31)N1CCOC(CC(NC(=O)C(C(C)C)N(C)C(=O)C3(F)CCN(C(=O)C#CC(C)(C)N(C)C)CC3)C(=O)N3CCCC(N3)C(=O)OCC(C)(C)C2)C1 ?
89.4

Follow-up item: CCc1c2c(nc3ccc(O)cc13)-c1cc3c(c(=O)n1C2)COC(=O)[C@]3(O)CC + CCn1c(-c2cccnc2C(C)OC)c2c3cc(ccc31)N1CCOC(CC(NC(=O)C(C(C)C)N(C)C(=O)C3(F)CCN(C(=O)C#CC(C)(C)N(C)C)CC3)C(=O)N3CCCC(N3)C(=O)OCC(C)(C)C2)C1
92.6

----------
Please go through the items and note down their viability, T/C.
- Tested on: 653999-131-R-J2-PDC complex spheroids, growth inhibition
- assay: Anticancer human tumor 653999-131-R-J2-PDC cell line growth inhibition [RAS];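 further: spheroids exposed to the agents for seven days before the readout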
- condition parameters: second compound 0.1 µM; first compound 0.316 µM; stronger effect = lower value
Give just the numeric value; % need not be written.

For CC(=O)OC12COC1CC(O)C1(C)C(=O)C(O)C3=C(C)C(OC(=O)C(O)C(NC(=O)OC(C)(C)C)c4ccccc4)CC(O)(C(OC(=O)c4ccccc4)C21)C3(C)C (configuration not stated) + C=CC(=O)N1CCN(c2nc(OCC3CCCN3C)nc3c(F)c(-c4nc(N)cc(C)c4C(F)(F)F)c(Cl)cc23)C(C)C1 , what is its reported viability, T/C?
53.7

Please answer likewise for CCC(CC)c1cc(NC2CCC(N)C2)n2nccc2n1 (configuration not stated) + C=CC(=O)N1CCN(c2nc(OCC3CCCN3C)nc3c(F)c(-c4nc(N)cc(C)c4C(F)(F)F)c(Cl)cc23)C(C)C1
112

For CC1(O)CCCC1n1c(=O)c(C(F)F)cc2cnc(NC3CCN(S(C)(=O)=O)CC3)nc21 (configuration not stated) + C#Cc1c(F)ccc2cc(O)cc(-c3ncc4c(N5CC6CCC(C5)N6)nc(OCC56CCCN5CC(F)C6)nc4c3F)c12 then?
51.2

Same question for O=C(c1ccc(F)c(F)c1Nc1ccc(I)cc1F)N1CC(O)([C@@H]2CCCCN2)C1 + C=CC(=O)N1CCN(c2nc(OCC3CCCN3C)nc3c(F)c(-c4nc(N)cc(C)c4C(F)(F)F)c(Cl)cc23)C(C)C1 please.
29

Then what about the molecule NC1c2ccccc2OC12CCN(c1cnc3c(N4CCCc5ncccc54)n[nH]c3n1)CC2 (configuration not stated) + C#Cc1c(F)ccc2cc(O)cc(-c3ncc4c(N5CC6CCC(C5)N6)nc(OCC56CCCN5CC(F)C6)nc4c3F)c12 ?
60.1

Same for CC(Nc1ccc2c(c1)OCCn1cc(N3C(=O)OCC3C(F)F)nc1-2)C(N)=O (configuration not stated) + C#Cc1c(F)ccc2cc(O)cc(-c3ncc4c(N5CC6CCC(C5)N6)nc(OCC56CCCN5CC(F)C6)nc4c3F)c12
47

Request: CC(C)NCC(C(=O)N1CCN(c2ncnc3c2C(C)CC3O)CC1)c1ccc(Cl)cc1 (configuration not stated) + C=CC(=O)N1CCN(c2nc(OCC3CCCN3C)nc3c(F)c(-c4nc(N)cc(C)c4C(F)(F)F)c(Cl)cc23)C(C)C1
76.2
